System: NCI/ADR-RES ovarian
Test: NCI-60 one-dose screen, 48 h
Conditions: 10 µM unless noted
This is part of a sample that, as a whole, favours compounds with a hit. Of some 83,000 tested, about 20% had one in any assay. Activity calls are given as the source filed them. Rule for the calls: active = growth percent below 10; inactive = the rest.
Your answer must be one of the following: active, inactive

{"columns": ["molecule", "class"],
 "data": [
  ["CN(C)CCn1c2ccccc2c2nc3cc4ccccc4cc3nc21", "active"],
  ["COc1cc(-c2nc3ccc(C)cc3[nH]2)ccc1OCc1nnc(-c2ccc(Br)cc2)o1", "inactive"],
  ["CC1CCCCN1CCCNC(=O)N/C(N)=N/c1nc2ccccc2s1 (configuration not stated)", "inactive"],
  ["CN1CCc2c(sc3ncnc(N/N=C/c4ccc(Cl)cc4Cl)c23)C1", "active"],
  ["O=C(Cn1nc(-c2ccccc2)ccc1=O)N/N=C/c1ccc(N2CCOCC2)cc1", "inactive"]
]}

Task: In this assay, the call recorded for O=C1CC(Sc2n[nH]c(-c3ccncc3)n2)C(=O)N1c1ccc(Br)cc1 (configuration not stated) was what?
Result: inactive

Task: In this assay, the call recorded for Cc1ccc(C(=O)C(c2c[nH]c3ccccc23)c2c[nH]c3ccccc23)cc1 was what?
Result: inactive

Task: In this assay, the call recorded for N#Cc1ccc(C(=O)Nn2c(N)cc3ccccc3c2=O)cc1 was what?
Result: inactive

Task: In this assay, the call recorded for Cc1sc2c(c1C)C(c1ccc(Cl)cc1)=N[C@@H](CC(=O)NCCCCCNC(=O)COc1ccc(C3CCC(=O)NC3=O)cc1)c1nnc(C)n1-2 (some centres not stated) was what?
Result: inactive

Task: In this assay, the call recorded for Cc1ccccc1[C@H]1C(C(=O)c2ccc(Cl)cc2)C2(N[C@@H]1c1ccccc1)C(=O)Nc1ccc(Br)cc12 (some centres not stated) was what?
Result: active

Task: In this assay, the call recorded for CN(C)c1nc(NCCNS(=O)(=O)c2ccc(C3=Nc4c(N)nc(N)nc4NC(c4ccc(C(F)(F)F)cc4)C3)cc2)nc(Nc2ccc(F)cc2)n1 (configuration not stated) was what?
Result: inactive

Task: In this assay, the call recorded for Cn1cc(-c2cc(N)n3nc(-c4cn(C)c5ncc(Br)cc45)cc3n2)c2cc(Br)cnc21 was what?
Result: inactive
